System: MOLT-4 leukemia
Assay: NCI-60 one-dose screen, 48 h
Conditions: 10 µM unless noted
The panel holds about 83,000 compounds, 20% with a hit somewhere; the sample as a whole holds those more often. The source made the active and inactive calls. Rule for the calls: active = growth percent below 10; inactive = the rest.
Please answer using one outcome listed in active, inactive

INSERT INTO assay_data (compound, measured_on, label_class) VALUES
  ('O=C(Oc1ccc2ccc(=O)oc2c1)c1ccc(Cl)cc1', 'MOLT-4 leukemia', 'inactive'),
  ('CCOC(=O)c1c(Nc2ccccc2)nn2c(N)c(C#N)c(-c3ccc(F)cc3)nc12', 'MOLT-4 leukemia', 'inactive'),
  ('Cc1cc(C(NC(=O)CCCCCNc2cccc3c2C(=O)N(C2CCC(=O)NC2=O)C3=O)c2cccnc2)c(O)c2ncccc12 (stereo not given)', 'MOLT-4 leukemia', 'active');

Query string: # fetch the recorded call for COc1cc(OC)c(C2C(Cl)C(=O)N2Nc2ncnc3ccccc23)cc1OC (stereo not given) here
Result string: inactive

Query string: # fetch the recorded call for `COC(=O)c1ccc(NC(=S)N2CCc3ccc([N+](=O)[O-])cc3C2)cc1O` here
Result string: inactive
